- test-protocol: The drug is tested on the gut metagenome community of A-09 with ENA study accession number: PRJEB31790 for biotransformation under anaerobic condition. The drug concentrations were measured over 7 timepoints collected between 0 and 12 hours of incubation by liquid-chromatography-coupled mass spectrometry (LC–MS)
- Format: ADME
- Design: dose 5 uM, timepoint 0, 0.75, 1.5, 3, 6, 9, 12 hours
- experimental-context: 5 µM
endpoint: Bacterial Biotransformation

Past entries and their recorded results:
molecule	result
CO[C@H]1C[C@@H]2CC[C@@H](C)[C@@](O)(O2)C(=O)C(=O)N2CCCC[C@H]2C(=O)O[C@H]([C@H](C)C[C@@H]2CC[C@@H](OCCO)[C@H](OC)C2)CC(=O)[C@H](C)/C=C(\C)[C@@H](O)[C@@H](OC)C(=O)[C@H](C)C[C@H](C)/C=C/C=C/C=C/1C [EVEROLIMUS]	Compound metabolized
C[C@H]1C[C@H]2[C@@H]3CCC4=CC(=O)C=C[C@]4(C)[C@@]3(F)[C@@H](O)C[C@]2(C)[C@@]1(O)C(=O)CO [BETAMETHASONE]	Compound metabolized
CCOC(=O)C1=C(COCCN)NC(C)=C(C(=O)OC)C1c1ccccc1Cl (stereo not drawn) [AMLODIPINE]	Compound NOT metabolized
CNC(=C[N+](=O)[O-])NCCSCc1ccc(CN(C)C)o1 [RANITIDINE]	Compound metabolized
C[C@@H](NCCCc1cccc(C(F)(F)F)c1)c1cccc2ccccc12	Compound NOT metabolized
CO[C@H]1C[C@@H]2CC[C@@H](C)[C@@](O)(O2)C(=O)C(=O)N2CCCC[C@H]2C(=O)O[C@H]([C@H](C)C[C@@H]2CC[C@@H](O)[C@H](OC)C2)CC(=O)[C@H](C)/C=C(\C)[C@@H](O)[C@@H](OC)C(=O)[C@H](C)C[C@H](C)/C=C/C=C/C=C/1C [SIROLIMUS]	Compound metabolized
Cn1cnc([N+](=O)[O-])c1Sc1ncnc2nc[nH]c12 [AZATHIOPRINE]	Compound metabolized
C[C@]12C=CC(=O)C=C1CC[C@@H]1[C@@H]2C(=O)C[C@@]2(C)[C@H]1CC[C@]2(O)C(=O)CO [PREDNISONE]	Compound metabolized
CCCC1O[C@@H]2C[C@H]3[C@@H]4CCC5=CC(=O)C=C[C@]5(C)[C@H]4[C@@H](O)C[C@]3(C)[C@]2(C(=O)CO)O1 (stereo partly drawn) [BUDESONIDE]	Compound metabolized
C[C@H]1C[C@@H]2[C@H]([C@@H](O)C[C@@]3(C)[C@H]2CC[C@]3(O)C(=O)CO)[C@@]2(C)C=CC(=O)C=C12 [METHYLPREDNISOLONE]	Compound metabolized

Would you mind listing Bacterial Biotransformation for each of the following molecules?
1. COc1ccc([C@@H]2Sc3ccccc3N(CCN(C)C)C(=O)[C@@H]2OC(C)=O)cc1 [DILTIAZEM]
2. C[C@]12CCC(=O)C=C1CC[C@@H]1[C@@H]2[C@@H](O)C[C@@]2(C)[C@H]1CC[C@]2(O)C(=O)CO [HYDROCORTISONE]
3. COc1c(C)c2c(c(O)c1C/C=C(\C)CCC(=O)OCCN1CCOCC1)C(=O)OC2 [MYCOPHENOLATE MOFETIL]

Compound metabolized
Compound metabolized
Compound metabolized
